Target: T1, Human-pIgR-ECD-his抗原重组蛋白 (human, UniProt P01833 19-638)
T1 construct: extracellular domain; Recombinant antigen coated on the ELISA plate (200 ng/well); also called PI蛋白; not shown: his tag
T1 sequence (P01833 19-638): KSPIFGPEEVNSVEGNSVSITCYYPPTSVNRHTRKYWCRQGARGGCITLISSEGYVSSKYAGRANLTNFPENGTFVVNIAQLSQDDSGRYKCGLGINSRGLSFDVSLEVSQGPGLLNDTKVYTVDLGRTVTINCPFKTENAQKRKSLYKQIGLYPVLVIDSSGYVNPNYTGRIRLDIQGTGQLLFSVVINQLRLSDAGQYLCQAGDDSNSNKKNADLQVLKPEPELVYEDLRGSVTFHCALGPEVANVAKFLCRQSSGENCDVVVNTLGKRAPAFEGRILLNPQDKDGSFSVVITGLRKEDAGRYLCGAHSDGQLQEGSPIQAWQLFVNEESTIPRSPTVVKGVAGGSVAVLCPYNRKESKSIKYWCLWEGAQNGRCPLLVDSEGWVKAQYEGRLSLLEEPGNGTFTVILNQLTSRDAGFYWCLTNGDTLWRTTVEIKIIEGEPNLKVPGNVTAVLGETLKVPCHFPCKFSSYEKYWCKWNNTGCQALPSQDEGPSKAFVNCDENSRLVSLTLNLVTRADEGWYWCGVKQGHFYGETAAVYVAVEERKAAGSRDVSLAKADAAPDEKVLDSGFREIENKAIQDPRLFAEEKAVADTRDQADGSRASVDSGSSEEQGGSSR
Test: ELISA, antigen coated, anti-human IgG Fc HRP
endpoint.label: binding result

PI-74-hFc (Fc fusion, VHH inserted into the pFCIG-hIgG1 plasmid, expressed in HEK293F; also called 单克隆PI-74-hFc; not shown: human IgG1 Fc fragment (hFC) from the bought expression plasmid pFCIG-hIgG1) EVKLVESGGGSVQAGGSLRLSCTASGPTYGRTCMGWFRQAPGREREGVATIETKGLTRYTYYADSVKGRFTISQDDAKNTLYLQMNSLKPEDTAMYYCAADGPGCSGGAFIARGRWYPHWGQGTQVTVSS: binds
PI-21-hFc (Fc fusion, VHH inserted into the pFCIG-hIgG1 plasmid, expressed in HEK293F; also called 单克隆PI-21-hFc; not shown: human IgG1 Fc fragment (hFC) from the bought expression plasmid pFCIG-hIgG1) QVKLVQSGGGLVQPGGSLRLSCAASGFTFENYAMGWLRQAPGEGLEWVSSINYNGDVTAYTTSVKGRFTVSRDNAKNTLYLQLNDLKIDDTAMYYCAKGRYGWALSREDYNTRGQGTQVTVSS: binds
PI-28-hFc (Fc fusion, VHH inserted into the pFCIG-hIgG1 plasmid, expressed in HEK293F; also called 单克隆PI-28-hFc; not shown: human IgG1 Fc fragment (hFC) from the bought expression plasmid pFCIG-hIgG1) EVKLVESGGGSVQAGGSLRLSCAASGYTYSSACMGWFRQAPGKERDWVALIDGIGSTTYTDSVKGRFTISQDNAKNTLYLQMNSLKPEDTATYYCAADLLSGGYCHPVGGGARDWGGPVVADFTYWGQGTQVTVSS: binds
PI-19-hFc (Fc fusion, VHH inserted into the pFCIG-hIgG1 plasmid, expressed in HEK293F; also called 单克隆PI-19-hFc; not shown: human IgG1 Fc fragment (hFC) from the bought expression plasmid pFCIG-hIgG1) EVQLVESGGGSVQAGGSLRLSCAASGITISNNCMGWFRQAPGKEREGVALLYSTSSTSSQKSHADSVKGRFTISRDNAKNTVYLQMNSLKPEDSAMYYCAAKSGVCRWNWEYGMDYWDWGKGTLVTISS: binds

meta.source: patent CN117603356A
